Subject Of Test: AASS (UniProt Q9UDR5)
Sequence: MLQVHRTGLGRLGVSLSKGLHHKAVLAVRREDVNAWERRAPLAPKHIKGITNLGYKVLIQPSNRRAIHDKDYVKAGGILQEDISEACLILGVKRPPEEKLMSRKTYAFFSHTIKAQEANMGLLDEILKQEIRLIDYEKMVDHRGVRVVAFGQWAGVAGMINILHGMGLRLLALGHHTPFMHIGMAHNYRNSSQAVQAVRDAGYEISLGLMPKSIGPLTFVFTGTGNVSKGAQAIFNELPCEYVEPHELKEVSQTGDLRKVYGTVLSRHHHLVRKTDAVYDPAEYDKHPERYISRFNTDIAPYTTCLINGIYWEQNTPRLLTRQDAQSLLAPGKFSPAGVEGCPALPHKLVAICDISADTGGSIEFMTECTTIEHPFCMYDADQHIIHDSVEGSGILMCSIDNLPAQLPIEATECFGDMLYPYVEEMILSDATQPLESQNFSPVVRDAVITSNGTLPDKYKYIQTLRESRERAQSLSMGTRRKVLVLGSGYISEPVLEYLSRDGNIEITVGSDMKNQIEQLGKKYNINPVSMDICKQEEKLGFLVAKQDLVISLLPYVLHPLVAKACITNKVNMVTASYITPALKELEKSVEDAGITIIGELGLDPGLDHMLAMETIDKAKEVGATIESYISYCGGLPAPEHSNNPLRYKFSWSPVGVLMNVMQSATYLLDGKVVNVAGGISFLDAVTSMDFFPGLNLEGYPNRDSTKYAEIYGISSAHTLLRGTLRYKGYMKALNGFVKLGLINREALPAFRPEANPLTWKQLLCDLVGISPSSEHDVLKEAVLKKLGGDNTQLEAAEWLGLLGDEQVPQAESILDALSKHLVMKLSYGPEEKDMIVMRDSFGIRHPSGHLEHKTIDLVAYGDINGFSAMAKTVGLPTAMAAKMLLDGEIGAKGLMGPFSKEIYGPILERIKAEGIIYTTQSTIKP
Experiment Notes: EC50 of free RNA motif oligo competing protein binding to immobilised probe
Measurement Type: EC50 (µM)
Form entry: value (µM) — number only.

Report EC50 for `AAUAAA` please.
9.78

* * *

Subject Of Test: SSB (UniProt P05455)
Sequence: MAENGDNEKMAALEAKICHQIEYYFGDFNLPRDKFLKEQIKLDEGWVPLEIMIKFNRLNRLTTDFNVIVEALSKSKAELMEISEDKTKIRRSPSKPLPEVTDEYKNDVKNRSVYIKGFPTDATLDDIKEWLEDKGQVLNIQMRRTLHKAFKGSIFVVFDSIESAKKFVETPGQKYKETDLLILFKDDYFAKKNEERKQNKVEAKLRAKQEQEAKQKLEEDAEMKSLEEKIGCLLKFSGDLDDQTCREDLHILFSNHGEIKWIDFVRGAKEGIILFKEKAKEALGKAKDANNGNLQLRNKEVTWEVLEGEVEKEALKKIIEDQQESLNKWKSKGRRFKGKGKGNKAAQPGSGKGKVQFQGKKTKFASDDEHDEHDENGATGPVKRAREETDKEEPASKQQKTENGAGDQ
Experiment Notes: Kd (EC50 corrected by depletion factor)
Give measured Kd for each item. Keep answers brief.
Your answer should be a plain number; it is taken to be in nM.

# lookup: Kd of `AAUAAA`
365

Fill in the blank: the reported Kd of `CUGUCCU` is ____.
1060

Could you share which Kd value was measured for `UAUUUAU` ?
289
